Origin of measurements: paper PMC13286573

targetOrSystem: LXRα (Homo sapiens)
Sequence (Q13133 209-447 limits assumed): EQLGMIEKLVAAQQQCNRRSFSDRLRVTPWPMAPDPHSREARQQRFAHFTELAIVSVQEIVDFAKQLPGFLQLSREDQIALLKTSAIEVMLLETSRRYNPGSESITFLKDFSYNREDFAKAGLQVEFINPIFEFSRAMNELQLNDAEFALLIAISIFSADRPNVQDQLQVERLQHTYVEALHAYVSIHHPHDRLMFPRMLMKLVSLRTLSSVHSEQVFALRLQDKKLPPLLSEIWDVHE
assayText: SMRT2 corepressor binding to LXRα, CRT
Type: biochemical
Parameters: The CRT selectivity assay incorporates GST-tagged LXR-LBD; purchased Thermo Fisher Scientific PV4657
particulars: ligand 1 µM, interpolated from concentration-response, normalized; heat map Figure 9A; read-out: SMRT2α, relative % activity at 1 μM
Quick reference: activity at 1 µM of the listed items.

compound: CC(C)(O)c1cn(-c2ccc(-c3cc(F)c(CO)c(S(C)(=O)=O)c3)cc2F)c(C(C)(C)c2c(Cl)cccc2Cl)n1 [XL041]
activity at 1 µM [%]: 152

compound: COc1ccc(NC2=C(c3ccccc3)C(=O)N(Cc3ccccc3)C2=O)cc1 [GSK3987]
activity at 1 µM [%]: 69.9

compound: CCOC(=O)c1cccc(NC(=O)c2sc(Cl)cc2S(=O)(=O)N(C)c2ccc(OCC)c(OCC)c2)c1 [CL2-57]
activity at 1 µM [%]: 100

compound: Cc1cc(C)c(S(=O)(=O)N(Cc2ccc(-c3cccc(S(C)(=O)=O)c3)cc2)Cc2ccc(C(F)(F)F)o2)c(C)c1 [GSK2033]
activity at 1 µM [%]: 92.9
